Data provenance: PubChem BioAssay (NCI)

System: UACC-257 melanoma
Experiment: NCI-60 one-dose screen, 48 h
Conditions: 10 µM unless noted
Protocol: Cells are grown in 96 well plates and exposed to the test compound for 48 hours. Compounds are tested at a single concentration, which is 10^-5 M for most compounds. The reported endpoint is percent growth (GI% or GIPRCNT), where numbers from 0 - 100% represent growth inhibition, and numbers from -100% - 0 represent cell death. For example, a value of 40 represents 60% growth inhibition. A value of 0 means no net growth occurred over the course of the experiment. […]
The panel holds about 83,000 compounds, 20% with a hit somewhere; the sample as a whole holds those more often. The source made the active and inactive calls. Rule for the calls: active = growth percent below 10; inactive = the rest.
Choose the fitting class; nothing outside yes (active), no (inactive) is accepted.

Known results for compounds:
# compound, tested.system, assigned.category
measured = [
    ("COc1ccc(Nc2nc(Nc3cc(C)[nH]n3)c3cc(OC)c(OC)cc3n2)cc1", "UACC-257 melanoma", "yes"),
    ("CC(C)C(=O)Nc1ncc(C(=O)NCCN(Cc2ccccc2)C(=O)c2ccc(S(=O)(=O)Nc3ccccc3)cc2)s1", "UACC-257 melanoma", "no"),
]

Exercise: For this compound, state the assay outcome: CN1CCN(Cn2nc(-c3cc(Cl)cc(Cl)c3Cl)oc2=S)CC1
Solution: no

Exercise: For this compound, state the assay outcome: Cc1ccc(NC(=O)c2ccc(Nc3ncnc4c3cnn4-c3cccc(F)c3)cc2)cc1
Solution: no

Exercise: For this compound, state the assay outcome: CC(C)=CCC[C@](C)(O)C1CC[C@]2(C)[C@@H]1CC[C@@H]1[C@@]3(C)CC/C(=N\OCCC#N)C(C)(C)[C@@H]3CC[C@]12C (some centres undefined)
Solution: no

Exercise: For this compound, state the assay outcome: CCOC(=O)CSc1nc2sc3c(c2c(=O)n1-c1ccccc1)CCCCC3
Solution: no

Exercise: For this compound, state the assay outcome: N=C(N)c1ccc(-c2ccc(-c3ccc(Cl)cc3Cl)s2)nc1
Solution: no

Exercise: For this compound, state the assay outcome: C=C(c1ccc(C(=O)O)c(F)c1)c1cc2c(cc1C)C(C)(C)C=CC2(C)C
Solution: no

Exercise: For this compound, state the assay outcome: Cc1cc2c(c(C)n1)CN(C(=O)Nc1nc(-c3cncs3)ccc1N)C2
Solution: no

Exercise: For this compound, state the assay outcome: Cc1csc(Nc2nc(-c3cccc(Cl)c3)nc(C(Cl)(Cl)Cl)n2)n1
Solution: no

Exercise: For this compound, state the assay outcome: COc1ccccc1-c1nc2ccc3[nH]ncc3c2c2c1CCCC2
Solution: no

Exercise: For this compound, state the assay outcome: C1=C2CCCC3=Cc4ccccc4OC23Oc2ccccc21
Solution: no

====

system: HT29 colon; assay: NCI-60 one-dose screen, 48 h (100 = growth as untreated, 0 = no growth, -100 = all killed); conditions: 10 µM unless noted
This is part of a sample that, as a whole, favours compounds with a hit. Of some 83,000 tested, about 20% had one in any assay.
Grouping by measured growth is done with the following cut points: low-valued = under 20%, mid-valued = from 20% up to 80%, high-valued = 80% and over

Known results for molecules:
# smiles.entry, assigned.category
rows = [
    ("CCCCCCCCNC(=O)[C@@H](N)CSCOC(C)=O", "high-valued"),
    ("Cc1ccc(C(=O)Nc2ccc(CN3CCN(C)CC3)c(C(F)(F)F)c2)cc1C#Cc1cnc(N)c2ccccc12", "low-valued"),
    ("C=CCNc1nc(O)c(/C=C2\\C=Nc3ncccc32)s1", "mid-valued"),
    ("COC12C=C/C(=C(/C(=O)OCc3ccccn3)C(=O)CCCCCCCCC3(OC)C=C/C(=C(/C(=O)OCc4ccccn4)C(=O)CCCCCCCC1)O3)O2", "low-valued"),
    ("O=C(Nc1ncc(Cc2ccccc2)s1)c1cc(-c2ccccc2)nc2ccccc12", "high-valued"),
    ("COc1ccc(S(=O)(=O)N(C)c2oc(-c3ccc(Cl)cc3)nc2C#N)cc1", "mid-valued"),
]

Now consider a different molecule.
Exercise: Lab note: sort COCCNC(=O)Cc1cc(-c2ccc(Cl)cc2)n(-c2ccccc2)c1C into the matching growth band.
Solution: high-valued
